molecular target: Rabies virus glycoprotein G, strain CVS-11 (Challenge Virus Standard-11, ATCC VR 959) (Rabies virus, strain CVS-11); experiment: cell-based or functional assay
measured-metric: Potency (IU/nM) increase versus monovalent (fold)

binder	assay-result
213-E6 5GS 213-E6 (VHH) EVQLVESGGGLVQAGASLRLSCAASGSTLSRYGVGWFRQAPGKERELVASVDWSGSRTYYADSVKGRFTISRDNAKNTGYLQMNSLKPDDTAVYYCAADSSVVPGIEKYDDWGLGTQVTVSSGGGGSEVQLVESGGGLVQAGASLRLSCAASGSTLSRYGVGWFRQAPGKERELVASVDWSGSRTYYADSVKGRFTISRDNAKNTGYLQMNSLKPDDTAVYYCAADSSVVPGIEKYDDWGLGTQVTVSS	27.7
214-E8 5GS 212-C12 (VHH) EVQLVESGGGSVQAGGSLRLSCAASGGTFNPYVMAWFRQAPGNEREFVARIRWSGGDAYYDDSVKGRFAITRDAAKNTVHLQMNSLKPEDTAVYYCAAATYGYGSYTYGGSYDLWGQGTQVTVSSGGGGSEVQLVESGGGLVQPGGSLRLSCAASGFTFGSSDMSWVRQAPGKGPEWVSGINSGGGRTLYADSVKGRFTISRDNAKNTLYLQMNSLKSEDTAVYYCATDLYGSSWYTDYWSQGTQVTVSS	5.2
213-E6 25GS 213-E6 (VHH) EVQLVESGGGLVQAGASLRLSCAASGSTLSRYGVGWFRQAPGKERELVASVDWSGSRTYYADSVKGRFTISRDNAKNTGYLQMNSLKPDDTAVYYCAADSSVVPGIEKYDDWGLGTQVTVSSGGGGSGGGGSGGGGSGGGGSGGGGSEVQLVESGGGLVQAGASLRLSCAASGSTLSRYGVGWFRQAPGKERELVASVDWSGSRTYYADSVKGRFTISRDNAKNTGYLQMNSLKPDDTAVYYCAADSSVVPGIEKYDDWGLGTQVTVSS	6.4
